Test system: V. harveyi
Assay Name: DPD analogs and representative bacterial species affected (Table 1)
Assay type: cell-based
Design: key: x: DPD Analogs and representative bacterial species affected
Measured Endpoint: bacterial species affected: V. harveyi

Reference set, count: 6
Assign bacterial species affected: V. harveyi to the following record: CCCCCCC(=O)C(=O)[C@@H](O)CO [Hexyl DPD]
x

Return bacterial species affected: V. harveyi for the following compound: CCC(=O)C(=O)[C@@H](O)CO [ethyl-DPD]
x

Report measured bacterial species affected: V. harveyi; entry is CCCCC(=O)C(=O)[C@@H](O)CO [Butyl-DPD, butyl-DPD]
x

Return bacterial species affected: V. harveyi (reported value) for this compound: O=C(C(=O)C1CCCCC1)C(O)CO (stereo not shown) [Cyclohexyl-DPD, cyclohexyl-DPD]
x

Using known records, supply bacterial species affected: V. harveyi for CC(C)CC(=O)C(=O)[C@@H](O)CO [Isobutyl-DPD, isobutyl-DPD]
x

Using the record for CCCC(=O)C(=O)[C@@H](O)CO [propyl-DPD] , state its measured bacterial species affected: V. harveyi.
x

Next, consider the following compound.
Note bacterial species affected: V. harveyi for the compound shown: CCCCCC(=O)C(=O)[C@@H](O)CO [Pentyl DPD]
x
